All figures here come from paper PMC9304282.

# experiment_summary: logP and conformer-specific logp determination by 19F NMR (octanol/water partitioning)
# Assay type: physicochemical
# experimental_context: n-octanol/water, octanol/water, 19F NMR, unrounded mean; read-out: logP, mean as printed in column Error (±σ)
Label True for high-side logP (at or above -0.6) and False for low-side logP (below it).

# compound, label
records = [
    ("CC(=O)N1CCC(F)C1 (centres unmarked)", "True"),
    ("CC(=O)N1CCCC(F)C1 (centres unmarked)", "True"),
    ("CC(=O)N1CCCC(F)(F)C1", "True"),
    ("CC(=O)N1C[C@H](F)C[C@H]1C(=O)N(C)C", "False"),
    ("COC(=O)[C@@H]1CC(F)(F)CN1C(C)=O", "True"),
    ("CC(=O)N1CC(F)(F)C[C@H]1C(=O)N(C)C", "False"),
    ("CC(=O)N1CCC(F)(F)C1", "True"),
]

###

# experiment_summary: logP and conformer-specific logp determination by 19F NMR (octanol/water partitioning)
# Assay type: physicochemical
# experimental_context: n-octanol/water, octanol/water, 19F NMR, cis amide rotamer; read-out: logp (cis)-rotamer (conformer-specific, average)

# smiles_entry, logP
data = [
    ("CC(=O)N1C[C@H](F)C[C@H]1C(=O)N(C)C", -1.39),
]

###

Documented Kt/c oct (ratio of trans/cis rotamers) across a set of molecules
# experiment_summary: amide rotamer ratio (K value) in octanol and water phase by 19F NMR integration
# Type: physicochemical
# experimental_context: octanol phase, experimental
readout_kind: Kt/c oct (ratio of trans/cis rotamers)

# smiles_entry, meas_value
measured = [
    ("COC(=O)[C@@H]1C[C@@H](F)CN1C(C)=O", 5.29),
    ("CC(=O)N1C[C@H](F)C[C@H]1C(=O)N(C)C", 8.29),
    ("CC(=O)N1CC(F)(F)C[C@H]1C(=O)N(C)C", 4.76),
    ("COC(=O)[C@@H]1CC(F)(F)CN1C(C)=O", 2.09),
]

###

Documented KE/Z wat (ratio of E:Z rotamers) across a set of molecules
# experiment_summary: amide rotamer ratio (K value) in octanol and water phase by 19F NMR integration
# Assay type: physicochemical
# experimental_context: water phase, experimental
readout_kind: KE/Z wat (ratio of E:Z rotamers)

# molecule, meas_value
measured = [
    ("CC(=O)N1CCCC(F)(F)C1", 0.73),
    ("CC(=O)N1CCC(F)C1 (stereo not shown)", 0.86),
    ("CC(=O)N1CCCC(F)C1 (stereo not shown)", 0.95),
    ("CC(=O)N1CCC(F)(F)C1", 0.84),
]

###

# experiment_summary: logP and conformer-specific logp determination by 19F NMR (octanol/water partitioning)
# Assay type: physicochemical
# experimental_context: n-octanol/water, octanol/water, 19F NMR, unrounded mean; read-out: logp Z rotamer, mean as printed in column Error (±σ)

# molecule, logP
rows = [
    ("CC(=O)N1CCC(F)C1 (stereo not shown) [compound 2, N-Acetyl-3-fluoropyrrolidine]", -0.538),
    ("CC(=O)N1CCCC(F)C1 (stereo not shown) [compound 4, N-Acetyl-3-fluoropiperidine]", -0.198),
    ("CC(=O)N1CCC(F)(F)C1 [compound 3, N-Acetyl-3,3-difluoropyrrolidine]", -0.089),
    ("CC(=O)N1CCCC(F)(F)C1 [compound 5, N-Acetyl-3,3-difluoropiperidine]", 0.174),
]

###

# experiment_summary: amide rotamer ratio (K value) in octanol and water phase by 19F NMR integration
# Type: physicochemical
# experimental_context: octanol phase, experimental
Documented KE/Z oct (ratio of E:Z rotamers) across a set of compounds
readout_kind: KE/Z oct (ratio of E:Z rotamers)

# compound, meas_value
measured = [
    ("CC(=O)N1CCC(F)(F)C1 [compound 3, N-Acetyl-3,3-difluoropyrrolidine]", 0.72),
    ("CC(=O)N1CCC(F)C1 (stereo not shown) [compound 2, N-Acetyl-3-fluoropyrrolidine]", 0.75),
    ("CC(=O)N1CCCC(F)(F)C1 [compound 5, N-Acetyl-3,3-difluoropiperidine]", 1.17),
    ("CC(=O)N1CCCC(F)C1 (stereo not shown) [compound 4, N-Acetyl-3-fluoropiperidine]", 1.43),
]

###

# experiment_summary: amide rotamer ratio (K value) in octanol and water phase by 19F NMR integration
# Type: physicochemical
# experimental_context: water phase, experimental
Documented Kt/c wat (ratio of trans/cis rotamers) across a set of compounds
readout_kind: Kt/c wat (ratio of trans/cis rotamers)

# smiles_entry, readout_kind, meas_value
measured = [
    ("COC(=O)[C@@H]1C[C@@H](F)CN1C(C)=O", "Kt/c wat (ratio of trans/cis rotamers)", 6.49),
    ("COC(=O)[C@@H]1CC(F)(F)CN1C(C)=O", "Kt/c wat (ratio of trans/cis rotamers)", 3.48),
    ("CC(=O)N1C[C@H](F)C[C@H]1C(=O)N(C)C", "Kt/c wat (ratio of trans/cis rotamers)", 4.44),
    ("CC(=O)N1CC(F)(F)C[C@H]1C(=O)N(C)C", "Kt/c wat (ratio of trans/cis rotamers)", 3.68),
]

###

Documented logP across a set of molecules
# experiment_summary: logP and conformer-specific logp determination by 19F NMR (octanol/water partitioning)
# Format: physicochemical
# experimental_context: n-octanol/water, octanol/water, 19F NMR, unrounded mean; read-out: logp E rotamer, mean as printed in column Error (±σ)

# molecule, logP
rows = [
    ("CC(=O)N1CCCC(F)C1 (stereo not shown) [compound 4, N-Acetyl-3-fluoropiperidine]", -0.015),
    ("CC(=O)N1CCC(F)C1 (stereo not shown) [compound 2, N-Acetyl-3-fluoropyrrolidine]", -0.602),
    ("CC(=O)N1CCCC(F)(F)C1 [compound 5, N-Acetyl-3,3-difluoropiperidine]", 0.378),
    ("CC(=O)N1CCC(F)(F)C1 [compound 3, N-Acetyl-3,3-difluoropyrrolidine]", -0.153),
]

###

# experiment_summary: logP and conformer-specific logp determination by 19F NMR (octanol/water partitioning)
# Type: physicochemical
# experimental_context: difference between E and Z rotamer logp
Documented Δlogp across a set of compounds

# compound, Δlogp
rows = [
    ("CC(=O)N1CCC(F)C1 (stereo not shown)", 0.06),
    ("CC(=O)N1CCCC(F)(F)C1", -0.21),
    ("CC(=O)N1CCC(F)(F)C1", 0.06),
    ("CC(=O)N1CCCC(F)C1 (stereo not shown)", -0.19),
]

###

Documented logP across a set of compounds
# experiment_summary: logP and conformer-specific logp determination by 19F NMR (octanol/water partitioning)
# Format: physicochemical
# experimental_context: n-octanol/water, octanol/water, 25 °C, 19F NMR, sum of rotamer signals; read-out: logP (macroscopic lipophilicity, average)
readout_kind: logP

# compound, meas_value
records = [
    ("CC(=O)N1CCCC(F)C1 (centres unmarked)", -0.1),
    ("CC(=O)N1CCC(F)(F)C1", -0.12),
    ("CC(=O)N1C[C@H](F)C[C@H]1C(=O)N(C)C", -1.16),
    ("CC(=O)N1CCC(F)C1 (centres unmarked)", -0.57),
    ("COC(=O)[C@@H]1C[C@@H](F)CN1C(C)=O", -0.6),
    ("CC(=O)N1CCCC(F)(F)C1", 0.27),
    ("CC(=O)N1CC(F)(F)C[C@H]1C(=O)N(C)C", -0.89),
    ("COC(=O)[C@@H]1CC(F)(F)CN1C(C)=O", -0.2),
]

###

# experiment_summary: logP and conformer-specific logp determination by 19F NMR (octanol/water partitioning)
# Assay type: physicochemical
# experimental_context: n-octanol/water, octanol/water, 19F NMR, unrounded mean; read-out: logp cis rotamer, mean as printed in column Error (±σ)

# smiles_entry, logP
measured = [
    ("CC(=O)N1CC(F)(F)C[C@H]1C(=O)N(C)C", -0.978),
    ("COC(=O)[C@@H]1C[C@@H](F)CN1C(C)=O", -0.529),
    ("COC(=O)[C@@H]1CC(F)(F)CN1C(C)=O", -0.035),
    ("CC(=O)N1C[C@H](F)C[C@H]1C(=O)N(C)C", -1.39),
]

###

# experiment_summary: logP and conformer-specific logp determination by 19F NMR (octanol/water partitioning)
# Assay type: physicochemical
# experimental_context: n-octanol/water, octanol/water, 19F NMR, unrounded mean; read-out: logp trans rotamer, mean as printed in column Error (±σ)
Documented logP across a set of compounds

# smiles_entry, logP
records = [
    ("COC(=O)[C@@H]1C[C@@H](F)CN1C(C)=O", -0.618),
    ("CC(=O)N1CC(F)(F)C[C@H]1C(=O)N(C)C", -0.866),
    ("COC(=O)[C@@H]1CC(F)(F)CN1C(C)=O", -0.256),
    ("CC(=O)N1C[C@H](F)C[C@H]1C(=O)N(C)C", -1.12),
]
